Attribution: ChEMBL document CHEMBL5352487

experimentDescription: Stability in monkey plasma assessed as half life
Format: ADME, cell-free, Macaca mulatta
conditionDescription: rhesus monkey
measuredParameter: half-life

compound: Cc1nc2cccc(NCc3ccc(CN4CCCCCC4)cc3F)c2c(=O)n1C1CCC(=O)NC1=O (configuration not stated)
half-life: > 120 min

Please turn your attention to the following entry.
Sure, the documented half-life for Cc1nc2cccc(N)c2c(=O)n1C1CCC(=O)NC1=O (configuration not stated) [AVADOMIDE] is > 120 min
